Target: Complement component 3 (C3) (Homo sapiens) (UniProt P01024+P01024)
Sequence (P01024 23-667, chain 1 of 2): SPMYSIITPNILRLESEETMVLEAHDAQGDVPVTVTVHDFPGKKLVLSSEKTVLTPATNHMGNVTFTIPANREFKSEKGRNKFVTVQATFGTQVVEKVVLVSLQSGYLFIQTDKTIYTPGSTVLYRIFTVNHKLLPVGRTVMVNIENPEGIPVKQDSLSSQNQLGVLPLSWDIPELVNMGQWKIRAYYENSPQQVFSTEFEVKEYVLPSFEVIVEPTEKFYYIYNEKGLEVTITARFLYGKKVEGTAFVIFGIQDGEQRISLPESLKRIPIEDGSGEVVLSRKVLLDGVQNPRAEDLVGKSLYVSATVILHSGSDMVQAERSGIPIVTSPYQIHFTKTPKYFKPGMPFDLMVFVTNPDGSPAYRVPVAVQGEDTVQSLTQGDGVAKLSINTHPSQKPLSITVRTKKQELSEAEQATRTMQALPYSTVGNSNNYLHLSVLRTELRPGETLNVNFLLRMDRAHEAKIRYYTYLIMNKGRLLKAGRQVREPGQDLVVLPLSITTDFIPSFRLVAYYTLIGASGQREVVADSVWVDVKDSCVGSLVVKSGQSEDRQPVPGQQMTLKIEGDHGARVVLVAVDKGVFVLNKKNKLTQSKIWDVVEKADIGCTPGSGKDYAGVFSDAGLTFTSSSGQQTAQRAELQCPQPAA
Sequence (P01024 672-1663, chain 2 of 2): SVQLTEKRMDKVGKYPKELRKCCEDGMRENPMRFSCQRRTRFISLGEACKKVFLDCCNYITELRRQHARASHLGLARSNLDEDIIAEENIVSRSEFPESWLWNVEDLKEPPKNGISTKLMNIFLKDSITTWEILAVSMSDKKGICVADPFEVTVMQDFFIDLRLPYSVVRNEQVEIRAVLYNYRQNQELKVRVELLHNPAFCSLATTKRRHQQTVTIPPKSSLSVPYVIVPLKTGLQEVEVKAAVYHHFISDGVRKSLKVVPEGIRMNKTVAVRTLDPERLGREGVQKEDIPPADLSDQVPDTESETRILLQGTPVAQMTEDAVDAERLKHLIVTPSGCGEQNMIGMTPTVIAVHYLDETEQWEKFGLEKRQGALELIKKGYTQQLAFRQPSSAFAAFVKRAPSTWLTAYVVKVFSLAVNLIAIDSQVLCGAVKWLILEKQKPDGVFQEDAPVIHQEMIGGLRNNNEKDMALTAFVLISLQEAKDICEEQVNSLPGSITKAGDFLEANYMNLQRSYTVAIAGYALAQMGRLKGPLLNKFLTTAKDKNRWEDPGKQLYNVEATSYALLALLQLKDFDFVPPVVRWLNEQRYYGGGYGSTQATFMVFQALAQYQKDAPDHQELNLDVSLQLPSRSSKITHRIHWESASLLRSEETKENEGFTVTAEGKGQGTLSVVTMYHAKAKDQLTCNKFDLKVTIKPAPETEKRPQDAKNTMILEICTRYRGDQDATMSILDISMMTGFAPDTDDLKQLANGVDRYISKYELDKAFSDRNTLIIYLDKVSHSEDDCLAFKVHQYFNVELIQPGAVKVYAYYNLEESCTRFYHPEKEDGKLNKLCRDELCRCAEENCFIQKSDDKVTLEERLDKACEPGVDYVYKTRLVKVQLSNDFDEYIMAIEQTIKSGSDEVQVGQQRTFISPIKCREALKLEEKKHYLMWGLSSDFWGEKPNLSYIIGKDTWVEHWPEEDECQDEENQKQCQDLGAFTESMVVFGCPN
Experiment: filter
Settings: all U = NapdU; C3-spacer replaces G19; 3'-3' idT; SB18T0.01, 37C
ENDPOINT_NAME: Kd (nM)
Answer in nM, number only, no unit symbol.

Would you kindly share the measured Kd for CCGGUGACUCAAUAGUCCUACGUUCCCGG [8491-94_44] ? 1.28

====

Molecular target: Complement component 3 (C3) (Homo sapiens) (UniProt P01024+P01024)
Assay: filter
Conditions: all U = NapdU; C3-spacer replaces G29; 3'-3' idT; SB18T0.01, 37C
ENDPOINT_NAME: pKd
When answering, recall that pKd equals minus log10 of the concentration in mol/L, and write that number alone.

Dear colleague, I am looking for the recorded pKd of the following sequence: CCGGUGACUCAAUAGUCCGUACGUUCCCG [8491-94_51] 9.64

====

Target: Complement component 3 (C3) (Homo sapiens) (UniProt P01024+P01024)
Assay: filter
Conditions: all U = NapdU; 2'-OMe at 1,2,3,5,9,10,13,19,20,22,23,24,26,27,28; C3-spacer replaces C7, C17, C25; 3'-3' idT; SB18T0.01, 37C
ENDPOINT_NAME: Kd (pM)
Please reply with the bare figure in pM and do not write the unit itself.

Look up Kd: CGGUGAUCAAUAGUCGUACGUUCCG [8491-94_100] 79.4

====

Biological target: Complement component 3 (C3) (Homo sapiens) (UniProt P01024+P01024)
Assay: filter
Conditions: all U = NapdU; 2'-OMe at G18; 3'-3' idT; SB18T0.01, 37C
ENDPOINT_NAME: Kd (nM)
Give the quantity in nM, number only.

Endpoint output: Kd of CGGUGACUCAAUAGUCCGUACGUUCCCG [8491-94_76] . Value? 0.93

====

Target: Complement component 3 (C3) (Homo sapiens) (UniProt P01024+P01024)
Assay: filter
Conditions: P = NapdU (all U); 2'-OMe P19; 3'-3' idT; SB18T0.01, 5 mM MgCl2, 37 C
ENDPOINT_NAME: pKd
pKd is defined as minus the log10 of a concentration measured in mol/L.

Need pKd of CGGUGACUCAAUAGUCCGUACGUUCCCG [8491-94_77] , thanks. 10.58

====

Molecular target: Complement component 3 (C3) (Homo sapiens) (UniProt P01024+P01024)
Experiment: filter
Settings: P = NapdU (all U); 2'-OMe C26; 3'-3' idT; SB18T0.01, 5 mM MgCl2, 37 C
ENDPOINT_NAME: Kd (nM)
# number only, unit nM dropped from output

Bench note: what Kd did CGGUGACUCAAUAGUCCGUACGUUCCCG [8491-94_84] show? 0.0738

====

Target: Complement component 3 (C3) (Homo sapiens) (UniProt P01024+P01024)
Assay: filter
Settings: all U = NapdU; C3-spacer replaces C17, C25; 3'-3' idT; SB18T0.01, 37C
ENDPOINT_NAME: Kd (nM)
Entry rule: numbers only, all in nM.

Find the recorded Kd belonging to CGGUGACUCAAUAGUCGUACGUUCCG [8491-94_56] and report it. 0.0464

====

Target: Complement component 3 (C3) (Homo sapiens) (UniProt P01024+P01024)
Assay: filter
Settings: all U = NapdU; C3-spacer replaces G3; 3'-3' idT; SB18T0.01, 37C
ENDPOINT_NAME: pKd
Quick note: pKd values are minus log10 of concentrations in mol/L.

If you can, please state the reported pKd value of CCGUGACUCAAUAGUCCGUACGUUCCCGG [8491-94_32] . 9.11

====

Target: Complement component 3 (C3) (Homo sapiens) (UniProt P01024+P01024)
Assay: filter
Conditions: P = NapdU (all U); 2'-OMe A20; 3'-3' idT; SB18T0.01, 5 mM MgCl2, 37 C
ENDPOINT_NAME: pKd
pKd here: minus log base 10 of the concentration, concentration in moles per litre.

I have this sequence here, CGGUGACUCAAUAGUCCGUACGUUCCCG [8491-94_78] , and I need its recorded pKd. 10.14

====

Target: Complement component 3 (C3) (Homo sapiens) (UniProt P01024+P01024)
Assay: filter
Details: all U = NapdU; 2'-OMe at A6; 3'-3' idT; SB18T0.01, 37C
ENDPOINT_NAME: pKd
The meaning of pKd here: minus log10 of the concentration in molar units.

Any idea what pKd was measured for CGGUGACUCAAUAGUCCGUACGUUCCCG [8491-94_64] ? 9.29

====

Biological target: Complement component 3 (C3) (Homo sapiens) (UniProt P01024+P01024)
Experiment: filter
Details: all U in listing = NapdU; 3'-3' idT; printed as 1.53-10; SB18T0.01, 37C
ENDPOINT_NAME: Kd (nM)
Just the number in nM, nothing appended.

# Kd lookup, item ACTCCGAGCAUUGACUCAAUAGUCCGUACGUUUUUUUGGGCCGGGGGGGCAGGAGGA [8491-403_3] 0.153

====

Biological target: Complement component 3 (C3) (Homo sapiens) (UniProt P01024+P01024)
Assay: filter
Conditions: all U = NapdU; 2'-OMe at 1,2,3,5,7,9,10,13,19,20,23-28; 3'-3' idT; SB18T0.01, 37C
ENDPOINT_NAME: Kd (nM)
Give the quantity in nM, number only.

For the sequence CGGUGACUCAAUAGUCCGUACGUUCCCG [8491-94_96] , what Kd is on record? 0.0364

====

Molecular target: Complement component 3 (C3) (Homo sapiens) (UniProt P01024+P01024)
Assay: filter
Settings: all U = NapdU; C3-spacer replaces C18; 3'-3' idT; SB18T0.01, 37C
ENDPOINT_NAME: Kd (nM)
Record the value in nM, omitting the unit from your answer.

Bench note: what Kd did CCGGUGACUCAAUAGUCGUACGUUCCCGG [8491-94_43] show? 0.0142

====

Target: Complement component 3 (C3) (Homo sapiens) (UniProt P01024+P01024)
Test: filter
Conditions: P = NapdU (all U); 2'-OMe C9; 3'-3' idT; SB18T0.01, 5 mM MgCl2, 37 C
ENDPOINT_NAME: pKd
Please report pKd as the negative decimal logarithm of the molar concentration, giving only the number.

pKd for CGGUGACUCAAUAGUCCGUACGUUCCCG [8491-94_67] ? 10.16

====

Target: Complement component 3 (C3) (Homo sapiens) (UniProt P01024+P01024)
Assay: filter
Conditions: all U = NapdU; C3-spacer replaces A11; 3'-3' idT; SB18T0.01, 37C
ENDPOINT_NAME: Kd (nM)
Only the number, expressed in nM, is required.

Item CCGGUGACUCAUAGUCCGUACGUUCCCGG [8491-94_38] has what recorded Kd? 0.148

====

Molecular target: Complement component 3 (C3) (Homo sapiens) (UniProt P01024+P01024)
Assay: filter
Settings: all U = NapdU; C3-spacer replaces G15; 3'-3' idT; SB18T0.01, 37C
ENDPOINT_NAME: pKd
The meaning of pKd here: minus log10 of the concentration in molar units.

Form entry - test system: Complement component 3 (C3) (Homo sapiens) (UniProt P01024+P01024); read-out: pKd; sequence: CCGGUGACUCAAUAUCCGUACGUUCCCGG [8491-94_41] 9.22

====

Biological target: Complement component 3 (C3) (Homo sapiens) (UniProt P01024+P01024)
Experiment: filter
Details: all U = NapdU; 2'-OMe at 1,2,3,5,7,10,13,19,23-28; 3'-3' idT; SB18T0.01, 37C
ENDPOINT_NAME: Kd (nM)
Return type: number; implicit unit nM.

Requested read-out: Kd. Entry: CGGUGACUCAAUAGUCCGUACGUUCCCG [8491-94_94] 0.0557

====

Biological target: Complement component 3 (C3) (Homo sapiens) (UniProt P01024+P01024)
Assay: filter
Settings: P = NapdU (all U); 2'-OMe P23; 3'-3' idT; SB18T0.01, 5 mM MgCl2, 37 C
ENDPOINT_NAME: Kd (nM)
The reply should be a number in nM, with the unit left off.

Lab note: need Kd with Complement component 3 (C3) (Homo sapiens) (UniProt P01024+P01024) for entry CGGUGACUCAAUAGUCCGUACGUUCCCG [8491-94_81] , please look it up. 0.0243

====

Target: Complement component 3 (C3) (Homo sapiens) (UniProt P01024+P01024)
Experiment: filter
Settings: P = NapdU (all U); 2'-OMe C7; 3'-3' idT; SB18T0.01, 5 mM MgCl2, 37 C
ENDPOINT_NAME: pKd
When answering, recall that pKd equals minus log10 of the concentration in mol/L, and write that number alone.

# get_value(readout='pKd', item= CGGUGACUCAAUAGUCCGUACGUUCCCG [8491-94_65] ) 10.50
